- setup-conditions: in ethyl acetate, 317.75 K
measured-endpoint: solubility (mole fraction)

>>> measured_result("CC(=O)S[C@@H]1CC2=CC(=O)CC[C@]2(C)[C@H]2CC[C@@]3(C)[C@@H](CC[C@@]34CCC(=O)O4)[C@H]12")
0.0456

----------
- setup-conditions: in ethyl acetate, 298.3 K
measured-endpoint: solubility (mole fraction)

>>> measured_result("CC(=O)S[C@@H]1CC2=CC(=O)CC[C@]2(C)[C@H]2CC[C@@]3(C)[C@@H](CC[C@@]34CCC(=O)O4)[C@H]12")
0.0281

----------
- setup-conditions: in methanol, 298.3 K
measured-endpoint: solubility (mole fraction)

>>> measured_result("CC(=O)S[C@@H]1CC2=CC(=O)CC[C@]2(C)[C@H]2CC[C@@]3(C)[C@@H](CC[C@@]34CCC(=O)O4)[C@H]12")
0.000612

----------
- setup-conditions: in n-butanol, 308.15 K
measured-endpoint: solubility (mole fraction)

>>> measured_result("CC(=O)S[C@@H]1CC2=CC(=O)CC[C@]2(C)[C@H]2CC[C@@]3(C)[C@@H](CC[C@@]34CCC(=O)O4)[C@H]12")
0.00732

----------
- setup-conditions: in n-propanol, 278.4 K
measured-endpoint: solubility (mole fraction)

>>> measured_result("CC(=O)S[C@@H]1CC2=CC(=O)CC[C@]2(C)[C@H]2CC[C@@]3(C)[C@@H](CC[C@@]34CCC(=O)O4)[C@H]12")
0.00228

----------
- setup-conditions: in isopropanol, 317.55 K
measured-endpoint: solubility (mole fraction)

>>> measured_result("CC(=O)S[C@@H]1CC2=CC(=O)CC[C@]2(C)[C@H]2CC[C@@]3(C)[C@@H](CC[C@@]34CCC(=O)O4)[C@H]12")
0.00731

----------
- setup-conditions: in isopropanol, 278.45 K
measured-endpoint: solubility (mole fraction)

>>> measured_result("CC(=O)S[C@@H]1CC2=CC(=O)CC[C@]2(C)[C@H]2CC[C@@]3(C)[C@@H](CC[C@@]34CCC(=O)O4)[C@H]12")
0.000994

----------
- setup-conditions: in n-propanol, 303.05 K
measured-endpoint: solubility (mole fraction)

>>> measured_result("CC(=O)S[C@@H]1CC2=CC(=O)CC[C@]2(C)[C@H]2CC[C@@]3(C)[C@@H](CC[C@@]34CCC(=O)O4)[C@H]12")
0.00606

----------
- setup-conditions: in isopropanol, 288.4 K
measured-endpoint: solubility (mole fraction)

>>> measured_result("CC(=O)S[C@@H]1CC2=CC(=O)CC[C@]2(C)[C@H]2CC[C@@]3(C)[C@@H](CC[C@@]34CCC(=O)O4)[C@H]12")
0.00168

----------
- setup-conditions: in n-butanol, 293.45 K
measured-endpoint: solubility (mole fraction)

>>> measured_result("CC(=O)S[C@@H]1CC2=CC(=O)CC[C@]2(C)[C@H]2CC[C@@]3(C)[C@@H](CC[C@@]34CCC(=O)O4)[C@H]12")
0.00396

----------
- setup-conditions: in methanol, 303.15 K
measured-endpoint: solubility (mole fraction)

>>> measured_result("CC(=O)S[C@@H]1CC2=CC(=O)CC[C@]2(C)[C@H]2CC[C@@]3(C)[C@@H](CC[C@@]34CCC(=O)O4)[C@H]12")
0.000813

----------
- setup-conditions: in isopropanol, 283.55 K
measured-endpoint: solubility (mole fraction)

>>> measured_result("CC(=O)S[C@@H]1CC2=CC(=O)CC[C@]2(C)[C@H]2CC[C@@]3(C)[C@@H](CC[C@@]34CCC(=O)O4)[C@H]12")
0.00128

----------
- setup-conditions: in ethyl acetate, 288.55 K
measured-endpoint: solubility (mole fraction)

>>> measured_result("CC(=O)S[C@@H]1CC2=CC(=O)CC[C@]2(C)[C@H]2CC[C@@]3(C)[C@@H](CC[C@@]34CCC(=O)O4)[C@H]12")
0.0226

----------
- setup-conditions: in ethanol, 313.15 K
measured-endpoint: solubility (mole fraction)

>>> measured_result("CC(=O)S[C@@H]1CC2=CC(=O)CC[C@]2(C)[C@H]2CC[C@@]3(C)[C@@H](CC[C@@]34CCC(=O)O4)[C@H]12")
0.00771

----------
- setup-conditions: in methanol, 293.45 K
measured-endpoint: solubility (mole fraction)

>>> measured_result("CC(=O)S[C@@H]1CC2=CC(=O)CC[C@]2(C)[C@H]2CC[C@@]3(C)[C@@H](CC[C@@]34CCC(=O)O4)[C@H]12")
0.00041

----------
- setup-conditions: in n-butanol, 317.65 K
measured-endpoint: solubility (mole fraction)

>>> measured_result("CC(=O)S[C@@H]1CC2=CC(=O)CC[C@]2(C)[C@H]2CC[C@@]3(C)[C@@H](CC[C@@]34CCC(=O)O4)[C@H]12")
0.011

----------
- setup-conditions: in isopropanol, 293.25 K
measured-endpoint: solubility (mole fraction)

>>> measured_result("CC(=O)S[C@@H]1CC2=CC(=O)CC[C@]2(C)[C@H]2CC[C@@]3(C)[C@@H](CC[C@@]34CCC(=O)O4)[C@H]12")
0.00208

----------
- setup-conditions: in isopropanol, 303.05 K
measured-endpoint: solubility (mole fraction)

>>> measured_result("CC(=O)S[C@@H]1CC2=CC(=O)CC[C@]2(C)[C@H]2CC[C@@]3(C)[C@@H](CC[C@@]34CCC(=O)O4)[C@H]12")
0.00343

----------
- setup-conditions: in n-butanol, 298.25 K
measured-endpoint: solubility (mole fraction)

>>> measured_result("CC(=O)S[C@@H]1CC2=CC(=O)CC[C@]2(C)[C@H]2CC[C@@]3(C)[C@@H](CC[C@@]34CCC(=O)O4)[C@H]12")
0.00469

----------
- setup-conditions: in ethanol, 293.45 K
measured-endpoint: solubility (mole fraction)

>>> measured_result("CC(=O)S[C@@H]1CC2=CC(=O)CC[C@]2(C)[C@H]2CC[C@@]3(C)[C@@H](CC[C@@]34CCC(=O)O4)[C@H]12")
0.0031

----------
- setup-conditions: in n-propanol, 318.35 K
measured-endpoint: solubility (mole fraction)

>>> measured_result("CC(=O)S[C@@H]1CC2=CC(=O)CC[C@]2(C)[C@H]2CC[C@@]3(C)[C@@H](CC[C@@]34CCC(=O)O4)[C@H]12")
0.0121

----------
- setup-conditions: in methanol, 283.65 K
measured-endpoint: solubility (mole fraction)

>>> measured_result("CC(=O)S[C@@H]1CC2=CC(=O)CC[C@]2(C)[C@H]2CC[C@@]3(C)[C@@H](CC[C@@]34CCC(=O)O4)[C@H]12")
0.000267

----------
- setup-conditions: in n-butanol, 278.95 K
measured-endpoint: solubility (mole fraction)

>>> measured_result("CC(=O)S[C@@H]1CC2=CC(=O)CC[C@]2(C)[C@H]2CC[C@@]3(C)[C@@H](CC[C@@]34CCC(=O)O4)[C@H]12")
0.00194

----------
- setup-conditions: in ethyl acetate, 283.65 K
measured-endpoint: solubility (mole fraction)

>>> measured_result("CC(=O)S[C@@H]1CC2=CC(=O)CC[C@]2(C)[C@H]2CC[C@@]3(C)[C@@H](CC[C@@]34CCC(=O)O4)[C@H]12")
0.0198

----------
- setup-conditions: in methanol, 288.55 K
measured-endpoint: solubility (mole fraction)

>>> measured_result("CC(=O)S[C@@H]1CC2=CC(=O)CC[C@]2(C)[C@H]2CC[C@@]3(C)[C@@H](CC[C@@]34CCC(=O)O4)[C@H]12")
0.000356

----------
- setup-conditions: in methanol, 317.75 K
measured-endpoint: solubility (mole fraction)

>>> measured_result("CC(=O)S[C@@H]1CC2=CC(=O)CC[C@]2(C)[C@H]2CC[C@@]3(C)[C@@H](CC[C@@]34CCC(=O)O4)[C@H]12")
0.00182

----------
- setup-conditions: in ethanol, 308.25 K
measured-endpoint: solubility (mole fraction)

>>> measured_result("CC(=O)S[C@@H]1CC2=CC(=O)CC[C@]2(C)[C@H]2CC[C@@]3(C)[C@@H](CC[C@@]34CCC(=O)O4)[C@H]12")
0.00606

----------
- setup-conditions: in ethanol, 283.55 K
measured-endpoint: solubility (mole fraction)

>>> measured_result("CC(=O)S[C@@H]1CC2=CC(=O)CC[C@]2(C)[C@H]2CC[C@@]3(C)[C@@H](CC[C@@]34CCC(=O)O4)[C@H]12")
0.00197

----------
- setup-conditions: in ethyl acetate, 303.15 K
measured-endpoint: solubility (mole fraction)

>>> measured_result("CC(=O)S[C@@H]1CC2=CC(=O)CC[C@]2(C)[C@H]2CC[C@@]3(C)[C@@H](CC[C@@]34CCC(=O)O4)[C@H]12")
0.0314

----------
- setup-conditions: in ethanol, 298.35 K
measured-endpoint: solubility (mole fraction)

>>> measured_result("CC(=O)S[C@@H]1CC2=CC(=O)CC[C@]2(C)[C@H]2CC[C@@]3(C)[C@@H](CC[C@@]34CCC(=O)O4)[C@H]12")
0.00394
